// merged dataset of pKi values, system = Melanocyte-stimulating hormone receptor (Homo sapiens, UniProt Q01726), multiple refs
Sequence (Q01726 whole entry): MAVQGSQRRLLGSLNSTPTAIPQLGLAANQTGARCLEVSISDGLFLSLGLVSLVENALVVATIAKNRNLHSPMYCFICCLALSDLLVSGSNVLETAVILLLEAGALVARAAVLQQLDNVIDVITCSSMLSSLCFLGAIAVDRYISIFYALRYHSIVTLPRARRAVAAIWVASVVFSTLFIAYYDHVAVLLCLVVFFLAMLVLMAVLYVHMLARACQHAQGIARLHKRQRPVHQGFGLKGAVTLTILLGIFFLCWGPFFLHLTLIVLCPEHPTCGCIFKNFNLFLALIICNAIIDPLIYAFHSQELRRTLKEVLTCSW
pKi: −log10 of the molar value.
Give t when the value for pKi is at least 8. Give f when it is less.

Below are worked cases with known answers.
[
  {
    "compound": "C[C@H]1NC(=O)c2cc(C#N)ccc2SC[C@@H](C(N)=O)NC(=O)[C@H](Cc2c[nH]c3ccccc23)NC(=O)[C@H](CCCNC(=N)N)NC(=O)[C@@H](Cc2ccccc2)NC(=O)[C@H](Cc2c[nH]cn2)NC1=O",
    "test target": "Melanocyte-stimulating hormone receptor (Homo sapiens, UniProt Q01726)",
    "label value": "t"
  },
  {
    "compound": "CC(=O)N[C@@H](Cc1cnc[nH]1)C(=O)N[C@H](Cc1ccccc1)C(=O)N1C[C@H](OCc2ccc3ccccc3c2)C[C@@H]1CCCN=C(N)N",
    "test target": "Melanocyte-stimulating hormone receptor (Homo sapiens, UniProt Q01726)",
    "label value": "t"
  }
]

Can CC(NC1CCCNC1)c1ccccc1N1CCN(C(=O)[C@@H](Cc2ccc(Cl)cc2)NC(=O)[C@H]2Cc3ccccc3CN2)CC1 (stereo partly specified) be said to have pKi at or above 8?
f

Can NCCC(=O)N[C@H](Cc1ccc(Cl)cc1)C(=O)N1CCN(c2ccccc2CNCCc2cccs2)CC1 be said to have pKi at or above 8?
f

Can N=C(N)NCCNC(=O)[C@H]1C[C@@H](OCc2ccc3ccccc3c2)CN1C(=O)[C@@H](Cc1ccccc1)NC(=O)[C@@H]1Cc2ccccc2CN1 be said to have pKi at or above 8?
f

====

// merged dataset of Ki values, system = Melanocyte-stimulating hormone receptor (Homo sapiens, UniProt Q01726), multiple refs
Threshold 2000 nM: Ki strictly smaller gives Y, otherwise N.

Below are worked cases with known answers.
[
  {
    "compound": "Cc1ccc(N2CCN(C(=O)[C@H]3CN(C4CCOCC4)C[C@@H]3c3ccc(Cl)cc3)CC2)c([C@@H](NC(=O)CCN(C)C)C(C)C)c1",
    "test target": "Melanocyte-stimulating hormone receptor (Homo sapiens, UniProt Q01726)",
    "label value": "Y"
  },
  {
    "compound": "O=C(N[C@H](Cc1ccc(Cl)cc1)C(=O)N1CCN(c2cccc3c2CCCC3)CC1)[C@H]1Cc2ccccc2CN1",
    "test target": "Melanocyte-stimulating hormone receptor (Homo sapiens, UniProt Q01726)",
    "label value": "N"
  },
  {
    "compound": "CC(=O)N[C@@H](Cc1ccc(O)cc1)C(=O)N[C@H](Cc1ccccc1)C(=O)N1C[C@H](OCc2ccc3ccccc3c2)C[C@@H]1CCCN=C(N)N",
    "test target": "Melanocyte-stimulating hormone receptor (Homo sapiens, UniProt Q01726)",
    "label value": "Y"
  }
]

In the record for CCN(CC)CC(c1ccccc1F)N1CCN(C(=O)[C@@H](Cc2ccc(Cl)cc2)NC(=O)CC2(C)NCc3ccccc32)CC1 (some centres undefined) , is Ki less than 2000 nM?
N

In the record for N=C(N)NCCCNC(=O)[C@H](CCCN=C(N)N)NCc1ccc2ccccc2c1 , is Ki less than 2000 nM?
N

In the record for C[C@H]1NC(=O)c2cc([N+](=O)[O-])ccc2SC[C@@H](C(N)=O)NC(=O)[C@H](Cc2c[nH]c3ccccc23)NC(=O)[C@H](CCCNC(=N)N)NC(=O)[C@@H](Cc2ccccc2)NC(=O)[C@H](Cc2c[nH]cn2)NC1=O , is Ki less than 2000 nM?
Y

In the record for CC(=O)N1CCCc2cccc(N3CCN(C(=O)[C@@H](Cc4ccc(Cl)cc4)NC(=O)[C@H]4Cc5ccccc5CN4)CC3)c21 , is Ki less than 2000 nM?
N

In the record for N=C(N)NCCC[C@H]1C[C@H](OCc2ccc3ccccc3c2)CN1C(=O)[C@@H](Cc1ccccc1)NC(=O)[C@@H]1Cc2ccccc2CN1 , is Ki less than 2000 nM?
Y

In the record for N#CCC(=O)N[C@@H](Cc1c[nH]cn1)C(=O)N[C@@H](Cc1ccccc1)C(=O)N[C@@H](CCCNC(=N)N)C(=O)N[C@@H](Cc1c[nH]c2ccccc12)C(N)=O , is Ki less than 2000 nM?
Y

In the record for O=C(N[C@H](Cc1ccc(Cl)cc1)C(=O)N1CCN(c2ccccc2CNCCc2cccs2)CC1)C1CCCNC1 (some centres undefined) , is Ki less than 2000 nM?
N

In the record for CC(=O)N[C@@H](Cc1ccc(O)cc1)C(=O)N[C@H](Cc1ccccc1)C(=O)N1C[C@H](OCc2ccc3ccccc3c2)C[C@H]1CCCN=C(N)N , is Ki less than 2000 nM?
Y

In the record for N=C(N)NCCC[C@H](NC(=O)[C@H](Cc1ccccc1)NC(=O)[C@H](Cc1c[nH]cn1)NC(=O)CC(F)(F)F)C(=O)N[C@@H](Cc1c[nH]c2ccccc12)C(N)=O , is Ki less than 2000 nM?
Y
